# measurement target: DNA topoisomerase 1 (Homo sapiens)
# test summary: Relative effective concentration to cleave plasmid DNA with human topoisomerase I; compared to camptothecin=1
metric name: REC
The answer should be written as a number, with no unit following it.

Please review the following examples before continuing.
INSERT INTO measurements (molecule, metric_name, test_result) VALUES
  ('CCN(CC)CCn1c(=O)c2c3cc4c(cc3ncc2c2cc(OC)c(OC)cc21)OCO4', 'REC', 0.7),
  ('COc1cc2c(C(=O)OCCN(C)C)cc3c4cc5c(cc4ncc3c2cc1OC)OCO5', 'REC', 5),
  ('COc1cc2c(C(=O)NCCCN(C)C)cc3c4cc5c(cc4ncc3c2cc1OC)OCO5', 'REC', 30);

# get_value(readout='REC', item= "COc1cc2c3cnc4cc5c(cc4c3c(=O)n(CCN(C)C)c2cc1OC)OCO5" )
3

Now consider "COc1cc2c(C(=O)OCCCN(C)C)cc3c4cc5c(cc4ncc3c2cc1OC)OCO5" .
7

Now consider "COc1cc2c3cnc4cc5c(cc4c3c(=O)n(CCN3CCCCC3)c2cc1OC)OCO5" .
0.1
